Tested on: CAKI-1 renal
Test: NCI tumour cell line growth inhibition, 48 h
assay_readout: TGI

Task: Item: CC([C@H]1CCC2C3CCC4C(=O)C(NC=O)=CC[C@]4(C)C3CC[C@@]21C)N(C)C (stereo not given in full) Test system: CAKI-1 renal Read-out: TGI Value: ?
Output: 33.5 µM

Task: Find the measured TGI: item COc1cc(C2C3=C(COC3=O)N(CCO)c3cc4c(cc32)OCCO4)cc(OC)c1O (stereo not given) , target or system CAKI-1 renal.
Output: > 45 µM

Task: Can you look up TGI on CAKI-1 renal for "COc1cc(OC)cc(-c2n[nH]nc2-c2ccc3c(c2)OCO3)c1" ?
Output: > 100 µM

Task: Request body: readout TGI, system CAKI-1 renal, query "COC(=O)[C@@]12CC3CN(Cc4c1[nH]c1ccccc41)C2CC3=O" . Return the value.
Output: > 100 µM

Task: Recall the recorded TGI for "COC1=C(NC(C)=O)C(=O)c2nc3n(c2C1=O)CCC3" with CAKI-1 renal and state it.
Output: 32.8 µM

Task: Under CAKI-1 renal: TGI value of CC1=NN(C(=O)CC(=O)Nc2ccccc2)C(=O)C1N=Nc1ccc(S(N)(=O)=O)cc1 (stereo not given) ?
Output: > 100 µM

Task: So what TGI did "O=c1[nH]/c(=C/c2cccs2)c(=O)[nH]/c1=C/c1ccc(OCc2ccccc2)cn1" get with CAKI-1 renal?
Output: 8.35 µM

Task: API: value(readout= TGI, system= CAKI-1 renal, query= "NC(N)=Nc1nc2cc(N)ccc2o1" )
Output: > 100 µM

Task: Requested read-out TGI, target or system CAKI-1 renal, entry CC1CN=C(c2ccc3c(c2)Cc2cc(C4=NCC(C)N4)ccc2-3)N1 (stereo not given)
Output: > 100 µM

Task: Form field - read-out: TGI; system: CAKI-1 renal; submitted item: COc1cc2c3c(c1OC)C1(C=CC(=O)C=C1)CC3N(C(=O)OC(C)(C)C(Cl)(Cl)Cl)CC2 (stereo not given)
Output: 50.9 µM

----------
Consider the following molecules; for each one, report its GI50.
Tested on: MALME-3M melanoma
Assay: NCI tumour cell line growth inhibition, 48 h

Task: // returns reported GI50 for input "COc1cccc(-n2cnc3c(N/N=C/c4ccncc4)ncnc32)c1"
Output: 10200 nM

Task: Form field: reported GI50 of O=C(NCCc1ccccc1)C(c1csc2ccccc12)N(C(=O)CCl)c1ccc(-c2cnco2)cc1 (centres undefined)
Output: 146 nM

Task: # input molecule: "COc1cc(Oc2cnc3cc(N)cc(N)c3n2)cc(OC)c1OC" ; wanted: its GI50
Output: 59900 nM

Task: What value of measured GI50 is listed for "COc1ccc(/C(C#N)=C/c2nc3c(N4CCOCC4)nc(Cl)nc3n2C)cc1OC" ?
Output: < 15.2 nM

Task: Report GI50 for CC(C)=CCNc1ncnc2c1ncn2C1OC(COP(=O)(O)O)C(O)C1O (centres undefined) please.
Output: 73800 nM

Task: Given "CC(=O)c1c[nH]c2ccc(-c3ccnc(Nc4ccc(NC(=O)c5cccc(F)c5)c(CN5CCOCC5)c4)n3)cc12" , state its recorded GI50.
Output: 254 nM

Task: GET /values?readout=GI50&item= "C=CC[n+]1c(/C=C2\Sc3ccccc3N2C)sc(-c2ccccc2)c1-c1ccccc1"
Output: 253 nM

Task: Fill in: GI50 of "CC(=N\O)/C(C)=N/O.CC(=N\O)/C(C)=N/O.[Pd]" is ___
Output: 1900 nM

Task: I'd like to know its GI50. The molecule in question is "COc1ccc(-c2ccc(/C=N/n3cnn(CN4CCN(C)CC4)c3=S)o2)c([N+](=O)[O-])c1"
Output: 36900 nM

Task: Given the entry CCCCC#Cc1c(I)n(C2OC(CO[Si](C)(C)C(C)(C)C)C3OC(C)(C)OC32)c(=O)[nH]c1=O (centres undefined) , report its measured GI50.
Output: 5450 nM

Task: Find the recorded GI50 belonging to "N=C(N)c1ccc(-c2ccc(-c3ccco3)o2)cc1" and report it.
Output: 2150 nM

Task: Consider the molecule "CCCCCCCC(=O)SCC/C=C/[C@@H]1CC(=O)NCc2cccc(n2)CN(Cc2ccc(Cl)cc2)CC(=O)N[C@@H](C(C)C)C(=O)O1" and give its measured GI50.
Output: 3120 nM

Task: Look up GI50: "COc1ccc(CNCCN2C(=O)c3ccc4c5c(ccc(c35)C2=O)C(=O)N(CCNCc2ccc(OC)cc2)C4=O)cc1"
Output: 123 nM

Task: Give its GI50 value. Item: CC([C@H]1CCC2C3CCC4C(=O)C(NC=O)=CC[C@]4(C)C3CC[C@@]21C)N(C)C (some centres undefined)
Output: 2340 nM

Measured values drawn from PubChem BioAssay (NCI) for this set.
